Values from PubChem BioAssay

Assignment: determine reported viability for the given compounds.
# PROCEDURE DETAILS: SK-BR-3 cell growth inhibitors, pilot screen, 24 h, human (AID 572);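 note: compound exposure lasted between 18 and 24 h rather than exactly 24 h; 100% = carrier-treated control wells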
# REPORTED CONDITIONS: SK-BR-3 viability, CellTiter-Glo luminescence, at 10 µM, stronger effect = lower value
Active and inactive are the calls of the source.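 Rule for the calls: active = viability at or below 10% of carrier control in both of two separate runs; inconclusive = viability at or below 10% in only one of the two runs; inactive = the rest.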

Guide cases for viability, answers given:
[
  {
    "COMPOUND": "Cn1cccc1Cc1nnc(SCC(=O)Nc2ccccc2F)n1CCc1ccccc1",
    "viability": "78.5% (inactive)"
  },
  {
    "COMPOUND": "Cc1ccc(C2=N/C(=C/N3CCOCC3)C(=O)O2)cc1",
    "viability": "84% (inactive)"
  },
  {
    "COMPOUND": "COc1ccc2c(c1)C1(Nc3ccccc3-c3nc4ccccc4n31)C(=O)N2 (stereo unspecified)",
    "viability": "88% (inactive)"
  },
  {
    "COMPOUND": "CC1(C)CC(=O)C(C=NCc2ccc3c(c2)OCO3)=C(O)C1",
    "viability": "104% (inactive)"
  },
  {
    "COMPOUND": "O=c1c2ccccc2c(/C=N/n2cnnc2)c(O)n1-c1ccccc1",
    "viability": "84% (inactive)"
  },
  {
    "COMPOUND": "O=C(Nc1ccc(NC(=O)c2ccco2)nc1)c1cccnc1",
    "viability": "102% (inactive)"
  },
  {
    "COMPOUND": "Cc1nnc(SCc2ccccc2F)n1NCc1cccs1",
    "viability": "100% (inactive)"
  },
  {
    "COMPOUND": "COc1cc(N=c2ssnc2Cl)cc(OC)c1",
    "viability": "84.5% (inactive)"
  },
  {
    "COMPOUND": "OC(CN1CCCCC1)Cn1c(C(F)(F)F)nc2ccccc21 (stereo unspecified)",
    "viability": "85.5% (inactive)"
  },
  {
    "COMPOUND": "CC(=O)c1c(OCC(=O)O)ccc2c(C)cc(=O)oc12",
    "viability": "136% (inactive)"
  }
]

Turning now to a further record.
The recorded viability for CCN(CC)C(=O)c1ccc(NS(=O)(=O)c2ccccc2)cc1 is 89.5% (inactive)

====

# PROCEDURE DETAILS: reversal of MRP1-mediated doxorubicin resistance, pilot screen, H69AR cells, doxorubicin co-treatment (AID 601)
# REPORTED CONDITIONS: H69AR cells + 2 uM doxorubicin, CellTiter-Glo, 72 h; measured here: viability with 2 uM doxorubicin; at 10 µM; stronger effect = lower value
MEASUREMENT NAME: viability (%)
Give bare numbers, in %.

State the recorded viability for every item in the following list.
1. COc1ccc(Cl)cc1NC(=O)CCN1CCN(c2ccccc2C)CC1
2. Cc1nc(-c2coc3cc(OCC(=O)O)ccc3c2=O)cs1

Reply |
1. 91.6
2. 89

Report viability for every entry below.
1. COc1ccc2c(c1)c(CC(=O)OCC(=O)O)c(C)n2C(=O)c1ccc(Cl)cc1
2. CCc1cc2c(NCCC(=O)O)nc(C)nc2s1
3. CCOC(=O)/C=C1\SCC(=O)N1Cc1nnc(-c2ccccc2Br)o1
4. COc1ccc(CC(=O)Nc2ccc(OC)c(NC(=O)c3ccco3)c2)cc1
5. CCO/C([O-])=N/c1c[n+](N2CCOCC2)no1

Reply |
1. 90.9
2. 87.6
3. 88.2
4. 91.5
5. 90
